Biological target: carbonyl BSA (Bos taurus, UniProt P02769)
Sequence (P02769 25-607): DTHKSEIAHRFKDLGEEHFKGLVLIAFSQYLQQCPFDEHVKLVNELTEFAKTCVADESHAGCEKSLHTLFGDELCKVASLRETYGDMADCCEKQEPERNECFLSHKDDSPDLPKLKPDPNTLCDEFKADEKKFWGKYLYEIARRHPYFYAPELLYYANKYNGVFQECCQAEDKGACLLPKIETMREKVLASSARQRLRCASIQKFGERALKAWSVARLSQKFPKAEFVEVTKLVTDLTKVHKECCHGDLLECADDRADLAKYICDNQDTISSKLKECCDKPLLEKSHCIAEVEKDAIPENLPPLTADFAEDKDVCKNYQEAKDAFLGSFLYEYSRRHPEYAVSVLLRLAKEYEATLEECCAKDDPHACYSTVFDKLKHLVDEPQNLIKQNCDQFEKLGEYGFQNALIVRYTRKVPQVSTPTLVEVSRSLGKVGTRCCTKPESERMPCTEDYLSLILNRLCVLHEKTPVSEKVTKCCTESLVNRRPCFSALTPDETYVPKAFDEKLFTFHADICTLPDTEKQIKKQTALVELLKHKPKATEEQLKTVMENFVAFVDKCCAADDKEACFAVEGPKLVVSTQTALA
Assay: Carbonyl protein reduction test with carbonyl BSA model (OxyBlot dot blot)
Format: biochemical, bovine
Settings: test—3; composition containing glycosyl hesperetin (0.1 w/v %) in combination with the labelled organic acid or amino acid (0.1 w/v % as headed)
Experimental: A carbonyl protein, obtained by carbonylating bovine serum albumin (termed “BSA”, hereinafter), was prepared as a carbonyl protein model (termed “carbonyl BSA”, hereinafter) and used in this experiment. […]
Assignment: determine reported Ratio of carbonyl BSA for the given compounds.
Please give only the number in your answer, with no unit.

Reported Ratio of carbonyl BSA for CC(=O)O : what is it?
0.25

Recorded Ratio of carbonyl BSA of N[C@@H](CCC(=O)[O-])C(=O)[O-].[Na+].[Na+] [L, sodium glutamate] , please.
0.28

Requested read-out: Ratio of carbonyl BSA. Entry: CC(O)C(=O)O (centres unmarked)
0.35

For the compound O=C[C@H](O)[C@H]1OC(=O)[C@@H](O)[C@H]1O , what Ratio of carbonyl BSA is on record?
0.49

Record request: Ratio of carbonyl BSA value, item COc1cc(/C=C/C(=O)O)ccc1O
0.35

I have this compound here, O=C(O)CC(O)(CC(=O)O)C(=O)O , and I need its recorded Ratio of carbonyl BSA.
0.52

Given the entry NCC(=O)O , report its measured Ratio of carbonyl BSA.
0.32

// Ratio of carbonyl BSA lookup, key: O=C(O)c1ccccc1
0.44

Tell me the measured Ratio of carbonyl BSA of O=C[C@H](O)[C@@H](O)[C@H](O)[C@H](O)C(=O)O , please.
0.16

Need Ratio of carbonyl BSA of C/C=C/C=C/C(=O)O , thanks.
0.26

Given the entry O=C(O)C(O)C(O)C(=O)O (centres unmarked) , report its measured Ratio of carbonyl BSA.
0.51
